Test system: 786-0 renal
Test: NCI tumour cell line growth inhibition, 48 h; in the data active = GI50 below about 0.43 µM; inactive = the rest
Labels: 1 (yes) = active, 0 (no) = inactive

Compound | System Tested | Assigned Label
COC(C(=O)[C@@H](O)[C@@H](C)O)[C@@H]1Cc2cc3cc(O[C@H]4C[C@@H](O[C@H]5C[C@@H](O)[C@H](O)C(C)O5)[C@H](O)C(C)O4)c(C)c(O)c3c(O)c2C(=O)[C@H]1O[C@H]1C[C@@H](O[C@H]2C[C@@H](O[C@H]3C[C@@H](O)[C@@H](O)C(C)O3)[C@@H](O)C(C)O2)[C@H](O)C(C)O1 (stereo partly drawn) | 786-0 renal | 1 (yes)
Clc1cccc(Cc2cn3cc(-c4ccccc4)nc3s2)c1 | 786-0 renal | 0 (no)
Cc1ccc(S(=O)(=O)N2C/C(=C\c3cc(F)cc(F)c3)C(=O)/C(=C/c3cc(F)cc(F)c3)C2)cc1 | 786-0 renal | 0 (no)

----------
Test system: RXF-631 renal
Assay: NCI tumour cell line growth inhibition, 48 h
Entries annotated with measured TGI
Measured Attribute: TGI

Compound | System Tested | Observed Value
[O-][N+]1=C(c2ccccc2)COc2ccccc21 | RXF-631 renal | > 100 µM
COC(=O)C1CCc2nnc(-c3cccnc3)n21 (centres undefined) | RXF-631 renal | > 100 µM
Cc1ccc(S(=O)(=O)NC(=O)Nc2nc(Cl)cc(Cl)n2)cc1 | RXF-631 renal | > 100 µM
COc1cc([C@@H]2c3cc4c(cc3[C@@H](NC(=O)c3ccc([N+](=O)[O-])cc3)C3COC(=O)[C@@H]32)OCO4)cc(OC)c1O (some centres undefined) | RXF-631 renal | 4.48 µM

----------
Tested on: NCI/ADR-RES ovarian
Assay: NCI tumour cell line growth inhibition, 48 h; in the data active means GI50 below about 0.43 µM; inactive means the rest
Labels: 1 for active, 0 for inactive

Compound | Assigned Label
O=C(Nc1cccc(-n2cc(-c3ccncc3)c(-c3ccc(O)c(Cl)c3)n2)c1)Nc1ccc(Cl)c(C(F)(F)F)c1 | 0
COC(C(=O)[C@@H](O)[C@@H](C)O)[C@@H]1Cc2cc3cc(O[C@H]4C[C@@H](O[C@H]5C[C@@H](O)[C@H](O)C(C)O5)[C@H](O)C(C)O4)c(C)c(O)c3c(O)c2C(=O)[C@H]1O[C@H]1C[C@@H](O[C@H]2C[C@@H](O[C@H]3C[C@@H](O)[C@@H](O)C(C)O3)[C@@H](O)C(C)O2)[C@H](O)C(C)O1 (stereo partly drawn) | 0
CCOC(=O)c1c2c(n3cccc(F)c13)C(=O)c1ncccc1C2=O | 0
CCN1CCN(Cc2ccc3cc(C(=O)Nc4cc(NC(=O)c5ccc6c(c5)OCCO6)ccc4F)ccc3n2)CC1 | 1
CCOCC[P+](c1ccccc1)(c1ccccc1)c1ccccc1 | 0
COc1ccc(/C=C/C(=O)c2ccc(NC(=O)CSc3nnc(-c4cc(OC)c(OC)c(OC)c4)o3)cc2)cc1 | 0
C(#Cc1ccccc1C#Cc1ccccn1)c1ccc(OCCCCCCOc2ccc(C#Cc3ccccc3C#Cc3ccccn3)cc2)cc1 | 0
O=C1[C@H](c2ccccc2)C2c3ccccc3CCN12 (stereo partly drawn) | 0

----------
Entries annotated with measured TGI
System: A549 NSCLC
Assay: NCI tumour cell line growth inhibition, 48 h

Molecule | System Tested | Unit Symbol | Censoring Sign | TGI
Cc1ccc(OCCn2cc(Nc3ccccc3)c(=O)[nH]c2=O)cc1 | A549 NSCLC | µM | > | 100
N=C(N)c1ccc(-c2ccc(-c3ccco3)o2)cc1F | A549 NSCLC | µM | = | 10.6
CN(C)CCOc1cccc(NC2=C(Cl)C(=O)C(Nc3cccc(OCCN(C)C)c3)=C(Cl)C2=O)c1 | A549 NSCLC | µM | = | 3.98
CC1OC2OC3C(OCC(O)C3O)OC(=O)[C@]34CCC(C)(C)CC3C3=CCC5[C@@]6(C)C[C@H](O)[C@H](OC7OC(CO)C(O)C(O)C7OC7OC(COC(=O)CC(C)(O)CC(=O)OC1C(O)C2O)C(O)C(O)C7O)[C@@](C)(CO)C6CC[C@@]5(C)[C@]3(C)CC4 (stereo not given in full) | A549 NSCLC | µM | = | 2.63
N#C/C(N)=C(\C#N)N=CNc1ccccc1N | A549 NSCLC | µM | > | 100

----------
Tested on: MOLT-4 leukemia
Experiment: NCI tumour cell line growth inhibition, 48 h

Compound | TGI
O=C1CCC2(c3ccc(F)cc3)Nc3ncncc3N12 (stereo not given) | > 10 µM
COc1ccc(C2Oc3c(cccc3OC)C=C2[N+](=O)[O-])cc1 (stereo not given) | 6.86 µM
C[C@H]1[C@H](C)CC[C@]2(C(=O)O)CC[C@]3(C)C(=CC[C@@H]4[C@@]5(C)CC[C@H](OC(=O)/C=C\c6ccc(O)cc6)C(C)(C)[C@@H]5CC[C@]43C)[C@H]12 | 19.7 µM
N#Cc1ccccc1/C=N/O | > 100 µM
O=C1/C(=C/c2cccc3ccccc23)Cc2ccccc21 | > 100 µM
CCN(CC)CCCC(C)Nc1ccnc2cc(Cl)c(SCc3ccccc3)cc12 (stereo not given) | 4.14 µM
Clc1ccc(N=Cc2cc3cc(Br)ccc3nc2Cl)cc1 | > 50 µM
O=C1c2cccnc2-c2nccc3ccnc1c23 | 0.756 µM
Cc1ccc2nc(Cl)c(/C=N/N3C(=O)/C(=C/Cc4ccco4)N=C3c3ccccc3)cc2c1 | > 92 µM
O=C(CN/C=C\C(=O)c1cc(Cl)ccc1Cl)c1ccccc1 | > 100 µM

----------
Tested on: SF-539 CNS
Assay: NCI tumour cell line growth inhibition, 48 h
Entries annotated with measured TGI

Compound | Unit Symbol | Censoring Sign | TGI
O=C(NO)c1ccc(OCc2ccccc2)cc1 | µM | > | 100
COc1ccc(-n2nnnc2C2(Nc3ccccc3)CCN(Cc3ccccc3)CC2)cc1 | µM | = | 34.6
O=[N+]([O-])c1ccc(C2N3CCCCC3[C@@H]3c4[nH]c5ccccc5c4CCN23)cc1 (stereo not given in full) | µM | = | 29.9
Cc1ccc(OCCn2cc(Nc3ccccc3)c(=O)[nH]c2=O)cc1 | µM | > | 100
O=C1C=Cc2c(I)sc(I)c21 | µM | = | 57.2
COc1ccc(/C=C/C(=O)c2ccc(NC(=O)CSc3nnc(-c4cc(OC)c(OC)c(OC)c4)o3)cc2)cc1 | µM | = | 3.03
O=C1c2cccnc2-c2nccc3ccnc1c23 | µM | = | 4.81
Cc1ccc2nc(Cl)c(/C=N/N3C(=O)/C(=C/Cc4ccco4)N=C3c3ccccc3)cc2c1 | µM | = | 88.4
CC(C)(C)C1CCN(C(=O)c2ccccc2)CC1 | µM | > | 100
COc1cc(C2SC(N)=Nc3c2c(C)nn3C(=O)Cc2ccccc2)ccc1O (stereo not given) | µM | > | 100
O=c1nc2[nH]nc(-c3ccccc3)c2n[nH]1 | µM | = | 36.4
CCCN1CN(C(C(=O)N[C@@H]2C(=O)N3C(C(=O)O)=C(C)CSC23)c2ccccc2)CSC1=S (stereo not given in full) | µM | > | 100
Cn1c2ccccc2c(=S)c2cc(NC(=O)CCCCC(=O)Nc3ccc4c(c3)c(=S)c3ccccc3n4C)ccc21 | µM | > | 100
O=c1[nH][nH]c(=S)c(=O)[nH]1 | µM | > | 100
Cc1ccccc1C(C#N)/C(=N/NC(=O)C(=O)NN)C(=O)Nc1cccc(C(F)(F)F)c1 (stereo not given) | µM | > | 100
O=C(Nc1cccc(-n2cc(-c3ccncc3)c(-c3ccc(O)c(Cl)c3)n2)c1)Nc1ccc(Cl)c(C(F)(F)F)c1 | µM | = | 5.99
O=C1[C@H](c2ccccc2)C2c3ccccc3CCN12 (stereo not given in full) | µM | > | 100
COc1ccc2oc(-c3ccc(Cl)cc3)c(N3CCN(C)CC3)c2c1 | µM | = | 3.37
NS(=O)(=O)c1ccc(NCc2cnc3ccccc3c2)cc1 | µM | > | 100
N#C/C(N)=C(\C#N)N=CNc1ccccc1N | µM | > | 100

----------
Tested on: UO-31 renal
Experiment: NCI tumour cell line growth inhibition, 48 h; in the data active = GI50 below about 0.43 µM; inactive = the rest
Labels: class 1 (active), class 0 (inactive)

Smiles Repr | Assigned Label
CCCNNC(=O)c1ccc(CNC(=O)/C=C/c2ccccc2)cc1 | class 1
Clc1cccc(Cc2cn3cc(-c4ccccc4)nc3s2)c1 | class 0
O=C(Nc1cccc(-n2cc(-c3ccncc3)c(-c3ccc(O)c(Cl)c3)n2)c1)Nc1ccc(Cl)c(C(F)(F)F)c1 | class 0
COc1cc2c3c(n(CCCN4CCOCC4)c(=O)c2cc1OC)-c1cc2c(cc1C3=O)OCO2 | class 0
CC(=O)O[C@@H]1CC(=O)O[C@@H]2C[C@@H](CC/C(Cl)=C/C/C=C\1C)O[C@@H]2CO | class 0

----------
Tested on: DU-145 prostate
Test: NCI tumour cell line growth inhibition, 48 h
Measured Attribute: TGI

Compound | System Tested | Observed Value
COc1ccc(-n2nnnc2C2(Nc3ccccc3)CCN(Cc3ccccc3)CC2)cc1 | DU-145 prostate | > 100 µM
C/C(=C\[C@H]1C[C@@H]([C@@H]2CC[C@]34C[C@]23C=C[C@@H]2[C@@]3(C)CC=C5C[C@@H](c6ccccc6)OC[C@]5(C)[C@@H]3C[C@@H](O)[C@]24C)C(=O)O1)CO | DU-145 prostate | > 67.9 µM
O=C1NCN(c2ccccc2)C12CCN(CCCSc1ccc(F)cc1)CC2 | DU-145 prostate | > 100 µM
O=C(/C=C/c1ccc2c(c1)OCO2)c1ccccc(=O)c1O | DU-145 prostate | 46.7 µM
COc1ccc2c(c1)CC[C@@H]1[C@@H]2CC[C@]2(C)c3c(cc(C(=O)c4ccccc4)c4sccc34)C[C@@H]12 | DU-145 prostate | > 100 µM
COC(C(=O)[C@@H](O)[C@@H](C)O)[C@@H]1Cc2cc3cc(O[C@H]4C[C@@H](O[C@H]5C[C@@H](O)[C@H](O)C(C)O5)[C@H](O)C(C)O4)c(C)c(O)c3c(O)c2C(=O)[C@H]1O[C@H]1C[C@@H](O[C@H]2C[C@@H](O[C@H]3C[C@@H](O)[C@@H](O)C(C)O3)[C@@H](O)C(C)O2)[C@H](O)C(C)O1 (stereo partly specified) | DU-145 prostate | > 32.5 µM
